# Method description: Plasma pharmacokinetics of pracinostat
# Type: in vivo, human
# Cond: human, plasma, po, 60 mg, AUC0-inf, Day 15, 60 mg oral, n=3, mean±SD
Readout name: AUC(0-inf) (ng·h/mL)
Kindly provide the numeric value in ng·h/mL only, without the unit symbol.

query: AUC(0-inf) for CCCCc1nc2cc(/C=C/C(=O)NO)ccc2n1CCN(CC)CC ?
result: 766

###

# Method description: Plasma pharmacokinetics of pracinostat
# Type: in vivo, human
# Cond: human, plasma, po, 60 mg, Cmax, Day 15, 60 mg oral, n=3, mean±SD
Readout name: Cmax (ng/mL)
Kindly provide the numeric value in ng/mL only, without the unit symbol.

query: Cmax for CCCCc1nc2cc(/C=C/C(=O)NO)ccc2n1CCN(CC)CC [Pracinostat] ?
result: 118
